assay_comment: BET inhibitor-based combinations targeting novel dependencies in MECOM-rearranged (r) AML: AML-191 cell line (AID 2202236; further: nearly all actives have a fitted effect of over 35% in size)
condition_summary: AML-191 viability, CellTiter-Glo luminescence, 48 h; series mostly up to 46 µM
Inconclusive results are not listed. Calls of active or inactive are those of the source. The call rests on the fitted dose curve; in most records, active means well fitted inhibition curve with a large enough effect; inconclusive means small, poorly fitted or top-dose-only effect; inactive means flat fitted curve, though single readings scatter.
The reply should name one outcome from active, inactive

Task: What call does the record list for Cn1c(=O)c2c(ncn2CC(O)CO)n(C)c1=O (configuration not stated) ?
Output: inactive

Task: What call does the record list for Cc1ccc(C(=O)Nc2ccc(Oc3cc4cnn(C)c4cc3-c3cn[nH]c3)c(F)c2)c(=O)n1-c1ccc(F)cc1 ?
Output: active

Task: What call does the record list for COC(=O)Nc1nc2ccc(Sc3ccccc3)cc2[nH]1 ?
Output: active

Task: What call does the record list for O=C(NCC1CCCCN1)c1cc(OCC(F)(F)F)ccc1OCC(F)(F)F (configuration not stated) ?
Output: inactive

Task: What call does the record list for O=c1ccn([C@@H]2O[C@H](CO)[C@H](O)[C@@H]2F)c(=O)[nH]1 ?
Output: inactive

Task: What call does the record list for Nc1nccc(Oc2ccc(NC(=O)c3c[nH]cc(-c4ccc(F)cc4)c3=O)cc2F)c1Cl ?
Output: active

Task: What call does the record list for Cc1cccc(-c2nn3c(c2-c2ccnc4ccc(C(N)=O)cc24)CCC3)n1 ?
Output: inactive

----------
assay_comment: BET inhibitor-based combinations targeting novel dependencies in MECOM-rearranged (r) AML: AML-194 cell line (AID 2202237; further: nearly all actives have a fitted effect of over 40% in size; further: potency means the concentration at half of the fitted maximal effect)
condition_summary: AML-194 (MECOM-r AML) viability, CellTiter-Glo, 48 h; series mostly up to 46 µM
Results filed as inconclusive are left out. The source made the active and inactive calls. Calls follow the shape of the dose curve; as a rule, active = well fitted inhibition curve with a large enough effect; inconclusive = small, poorly fitted or top-dose-only effect; inactive = flat fitted curve, though single readings scatter.
quantity_measured: Potency

Cc1[nH]c(=O)c(C#N)cc1-c1ccncc1 = inactive
Cc1nnc(C(=O)NC(C)(C)c2nc(C(=O)NCc3ccc(F)cc3)c(O)c(=O)n2C)o1 = inactive
Nc1ncnc2c1ncn2[C@@H]1O[C@H](CO)C[C@H]1O = inactive
O=C(Nc1nc2cccc(-c3ccc(CN4CCS(=O)(=O)CC4)cc3)n2n1)C1CC1 = 13.2 µM (active)
Nc1nc2c(ncn2COCCO)c(=O)[nH]1 = inactive

Lab note: O=C(Nc1ccc(S(=O)(=O)N2CCOCC2)cc1)c1cc(Cl)ccc1NS(=O)(=O)c1ccc(Cl)s1 gave Potency of inactive

Lab note: Cc1ccc(S(=O)(=O)OCC(=O)Nc2ccc(C(=O)O)c(O)c2)cc1 gave Potency of inactive

Lab note: CCOC(=O)C1=C(N)Oc2ccc(Br)cc2C1C(C#N)C(=O)OCC (stereo not given) gave Potency of inactive

Lab note: NCCCC(O)(P(=O)(O)O)P(=O)(O)O gave Potency of inactive

Lab note: O=C1CCCC2=C1C(c1[nH]ncc1Cl)N=C(Nc1nc3ccccc3o1)N2 (stereo not given) gave Potency of inactive

Lab note: N#Cc1ccc(NC(=O)Nc2ccccc2Br)c2n[nH]nc12 gave Potency of inactive

Lab note: Cc1cc(-c2ncc(CC(=O)Nc3ccc(-c4cnccn4)cn3)cc2C)ccn1 gave Potency of inactive

Lab note: O=C(O)C(O)Cc1ccc(O)c(O)c1 (stereo not given) gave Potency of inactive

Lab note: CC[C@H](C=C[C@@H](C)[C@H]1CC[C@H]2[C@@H]3CC=C4C[C@@H](O)CC[C@]4(C)[C@@H]3CC[C@]12C)C(C)C gave Potency of inactive

Lab note: CC(C)[C@@H](CS(=O)(=O)C(C)C)N1C(=O)[C@@](C)(CC(=O)O)C[C@H](c2cccc(Cl)c2)[C@H]1c1ccc(Cl)cc1 gave Potency of 2.35 µM (active)

Lab note: Cc1ccnc(NS(=O)(=O)c2ccc(NC(=O)Nc3ccc(S(=O)(=O)Nc4nccc(C)n4)cc3)cc2)n1 gave Potency of inactive

Lab note: CS(=O)(=O)Nc1ccc([N+](=O)[O-])cc1Oc1ccccc1 gave Potency of inactive

Lab note: CCOc1cc(C(=O)N2CCC(N3CCN(C)CC3)CC2)ccc1Nc1ncc2c(n1)N(C1CCCC1)c1ccccc1C(=O)N2C gave Potency of 8.33 µM (active)

----------
assay_comment: BET inhibitor-based combinations targeting novel dependencies in MECOM-rearranged (r) AML: HNT-34 cell line (AID 2202234); further: nearly all actives have a fitted effect of over 35% in size
condition_summary: HNT-34 AML viability, CellTiter-Glo luminescence, 48 h; series mostly up to 46 µM
Results filed as inconclusive are left out. The source made the active and inactive calls. Calls follow the shape of the dose curve; as a rule, active = well fitted inhibition curve with a large enough effect; inconclusive = small, poorly fitted or top-dose-only effect; inactive = no such curve, though single readings can be large or run the other way.
The reply should name one outcome from true (1) (active), false (0) (inactive)

Task: What call does the record list for COc1ccc(-n2c(SCCCN3C(=O)c4cccc5cccc(c45)C3=O)nnc2-c2ccncc2)cc1 ?
Output: false (0)

Task: What call does the record list for CC(C)C(=O)Nc1ncc(-c2cc(C(F)F)nn2-c2c(Cl)cccc2Cl)s1 ?
Output: true (1)

Task: What call does the record list for COc1cc(F)c(F)c(Nc2ccc(I)cc2F)c1NS(=O)(=O)C1(C[C@H](O)CO)CC1 ?
Output: true (1)

Task: What call does the record list for COc1cc(N2CCN(C(C)=O)CC2)ccc1Nc1ncc(Cl)c(Nc2ccc(N3CCN(C(C)=O)CC3)cc2OC)n1 ?
Output: true (1)

Task: What call does the record list for Nc1cccc(-c2cc3c(Oc4cccc(O)c4)ncnc3[nH]2)c1 ?
Output: true (1)

Task: What call does the record list for CCN(CC)CCCCNc1ncc2cc(-c3cc(OC)cc(OC)c3)c(NC(=O)NC(C)(C)C)nc2n1 ?
Output: true (1)

Task: What call does the record list for O=S(=O)(c1cccc2c(I)cccc12)N1CCCNCC1 ?
Output: false (0)

----------
assay_comment: BET inhibitor-based combinations targeting novel dependencies in MECOM-rearranged (r) AML: AML-191 cell line (AID 2202236)
condition_summary: AML-191 viability, CellTiter-Glo luminescence, 48 h; series mostly up to 46 µM
Description: Ecotropic viral insertion site 1 (EVI1) is located on chromosome 3q26.2 as part of the MECOM (MDS and EVI1 complex) locus. […] A collection of 2480 mechanistically annotated dugs (MIPE v5.0) was used to screen four 3q26.2 rearranged AML cell lines and three non-3q26.2 rearranged AML cell lines. […] Cell viability was determined by luminescence based, Cell Titer Glo assay (Promega). […] Luminescence readings were taken using a Viewlux (PerkinElmer) with a 2 s exposure time per plate. […]
Inconclusive results are not listed. The source made the active and inactive calls. Calls come from the whole dose curve; as a rule, active = well fitted inhibition curve with a large enough effect; inconclusive = small, poorly fitted or top-dose-only effect; inactive = flat fitted curve, though single readings scatter.
The reply should name one outcome from active, inactive

Task: What call does the record list for CC1=C(C)C(=O)C(C(CCCCCC(=O)O)c2ccccc2)=C(C)C1=O (stereo not given) ?
Output: inactive

Task: What call does the record list for O=C(c1ccccc1)c1ccc2n1CCC2C(=O)O (stereo not given) ?
Output: inactive

Task: What call does the record list for CC(C)N(C[C@H]1O[C@@H](n2cnc3c(N)ncnc32)[C@H](O)[C@@H]1O)C1CC(CCc2nc3ccc(C(C)(C)C)cc3[nH]2)C1 (stereo not given in full) ?
Output: inactive

Task: What call does the record list for CN(C)N(C)C(=O)[C@@]1(Cc2ccccc2)CCCN(C(=O)[C@@H](Cc2c[nH]c3ccccc23)NC(=O)C(C)(C)N)C1 ?
Output: inactive

Task: What call does the record list for N[C@@H]1CONC1=O ?
Output: inactive

Task: What call does the record list for CCCCS(=N)(=O)CCC(N)C(=O)O (stereo not given) ?
Output: inactive

Task: What call does the record list for Cc1cc(C(=O)Nc2cc(Oc3ccc4nc(NC(=O)C5CC5)cn4n3)ccc2C)n(C)n1 ?
Output: active

Task: What call does the record list for CNC(=O)c1nn(C)c2c1C(C)(C)Cc1cnc(Nc3ccc(N4CCN(C)CC4)cc3)nc1-2 ?
Output: active

Task: What call does the record list for CCOC(=O)N1CCN(/[N+]([O-])=N/Oc2ccc([N+](=O)[O-])cc2[N+](=O)[O-])CC1 ?
Output: active

Task: What call does the record list for Oc1ccc(Nc2nc(-c3ccc(Cl)cc3)cs2)cc1 ?
Output: active

Task: What call does the record list for CNCCCC12CCC(c3ccccc31)c1ccccc12 ?
Output: active

Task: What call does the record list for CC(=O)OCC(CCn1cnc2cnc(N)nc21)COC(C)=O ?
Output: inactive

Task: What call does the record list for CNC(=O)c1cc(Oc2ccc(NC(=O)Nc3ccc(Cl)c(C(F)(F)F)c3)cc2)ccn1 ?
Output: active

Task: What call does the record list for CC(=O)NCCC(=O)N[C@@H](CCC(N)=O)C(=O)N[C@@H](CO)C(=O)N[C@@H](CCC(N)=O)C(=O)N[C@@H](CCC(N)=O)C(=O)N[C@H](C(=O)N[C@@H](Cc1ccccc1)C(=O)N[C@]1(C)CCCCCCC=CCCC[C@@](C)(C(=O)N[C@@H](CCC(N)=O)C(=O)N[C@@H](CC(N)=O)C(N)=O)NC(=O)[C@H](CC(C)C)NC(=O)[C@H](CC(C)C)NC(=O)[C@@H](CCCNC(=N)N)NC(=O)[C@H](Cc2c[nH]c3ccccc23)NC(=O)[C@H](CC(C)C)NC(=O)[C@H](CC(N)=O)NC1=O)[C@H](C)O ?
Output: inactive

Task: What call does the record list for O=C(c1cncc(Br)c1)N1CCC(N2CCCC2)CC1 ?
Output: inactive

These data points were gathered from PubChem BioAssay (NCATS).
